target: purified human P195R-2 mutant of 3β-HSD2 (Homo sapiens, UniProt P26439, P195R); assay: Inhibition kinetics of purified enzyme; type: biochemical
Sequence (P26439 whole entry P195R): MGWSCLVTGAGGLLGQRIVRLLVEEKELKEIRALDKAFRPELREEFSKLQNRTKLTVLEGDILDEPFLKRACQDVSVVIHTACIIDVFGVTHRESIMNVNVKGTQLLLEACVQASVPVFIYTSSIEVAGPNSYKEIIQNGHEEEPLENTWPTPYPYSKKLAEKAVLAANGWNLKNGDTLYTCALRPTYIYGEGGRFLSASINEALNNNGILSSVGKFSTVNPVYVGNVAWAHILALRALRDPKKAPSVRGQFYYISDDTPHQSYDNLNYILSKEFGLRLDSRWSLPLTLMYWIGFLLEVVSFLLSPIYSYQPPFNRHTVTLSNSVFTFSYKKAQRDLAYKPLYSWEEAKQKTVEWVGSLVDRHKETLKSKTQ
assay-metric: pKi
# pKi is unitless: minus log10 of the molar concentration; print number only

q: Look up pKi: C[C@]12CC[C@H]3[C@@H](CC[C@@]45O[C@@H]4C(O)=C(C#N)C[C@]35C)[C@@H]1CC[C@@H]2O
a: 6.72

====

molecular target: purified human P195R-2 mutant of 3β-HSD2 (Homo sapiens, UniProt P26439, P195R); experiment: Inhibition kinetics of purified enzyme; format: biochemical; conditions: DHEA 8.0 or 20.0 μM, NAD+ 0.2 mM, 27 °C, pH 7.4
assay-metric: Ki
Include the unit after the number when you answer.

q: Look up Ki: CC(=O)OC1CCC2C3CCC45OC4C(O)=C(C#N)CC5(C)C3CCC12C (stereo not shown)
a: 390 nM

====

target: UniProt:P26439; assay: Inhibition kinetics of purified enzyme; assay type: biochemical; details: DHEA 8.0 or 20.0 μM, NAD+ 0.2 mM, 27 °C, pH 7.4
assay-metric: Ki (nM)
Express it in nM; write the number only.

q: Look up Ki: CC(=O)OC1CCC2C3CCC45OC4C(O)=C(C#N)CC5(C)C3CCC12C (stereo not shown)
a: 1590
